# assayed.target: Serine protease 1 (Homo sapiens) (UniProt P07477)
# Sequence (P07477 whole entry): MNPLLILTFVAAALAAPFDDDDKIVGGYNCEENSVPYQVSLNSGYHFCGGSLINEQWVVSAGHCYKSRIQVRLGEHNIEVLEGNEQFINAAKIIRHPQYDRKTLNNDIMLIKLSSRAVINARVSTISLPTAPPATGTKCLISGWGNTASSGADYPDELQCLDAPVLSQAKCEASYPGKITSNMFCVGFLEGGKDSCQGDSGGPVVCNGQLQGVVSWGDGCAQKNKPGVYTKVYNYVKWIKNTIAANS
# protocol.description: Compound was evaluated for in vitro inhibition of trypsin induced proteolysis at 0.1 mM concentration
# Type: functional
property: inhibition (%)

INSERT INTO results (molecule, measurement_unit, value_observed) VALUES
  ('CO/N=C/c1ccc2ccc(=O)oc2c1', '%', 100),
  ('O=c1ccc2ccccc2o1', '%', 12.7),
  ('Cc1ccc2ccc(=O)oc2c1', '%', 90.4),
  ('O=Cc1ccc2ccc(=O)oc2c1', '%', 83.4),
  ('O=c1ccc2ccc(/C=N/c3ccccc3)cc2o1', '%', 35.3),
  ('O=c1ccc2ccc(/C=N/O)cc2o1', '%', 70.7),
  ('CC(=O)CC(c1ccccc1)c1c(O)c2ccccc2oc1=O (centres undefined)', '%', 92.5),
  ('CC(O)Cc1ccc2ccc(=O)oc2c1 (centres undefined)', '%', 41.1),
  ('O=c1ccc2ccc(/C=N/N=C/c3ccc4ccc(=O)oc4c3)cc2o1', '%', 99.9);

====

# assayed.target: Chymotrypsinogen B (Homo sapiens) (UniProt P17538)
# Sequence (P17538 34-164 limits assumed, other chains not shown): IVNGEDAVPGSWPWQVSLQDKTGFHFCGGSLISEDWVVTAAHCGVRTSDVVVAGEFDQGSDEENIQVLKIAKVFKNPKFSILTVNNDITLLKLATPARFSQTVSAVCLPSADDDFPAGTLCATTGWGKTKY
# Sequence (P17538 167-263 limits assumed, other chains not shown): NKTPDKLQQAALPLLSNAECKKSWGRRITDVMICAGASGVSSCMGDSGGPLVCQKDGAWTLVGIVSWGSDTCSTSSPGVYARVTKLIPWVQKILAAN
# protocol.description: Compound was evaluated for in vitro inhibition of chymotrypsinogen acting as esterase at 1 mM concentration
# Type: functional
Entry flag: 1 if inhibition reaches 90%; 0 if it does not.

INSERT INTO results (compound, category_label) VALUES
  ('O=c1ccc2ccccc2o1', 0),
  ('Cc1ccc2ccc(=O)oc2c1', 1),
  ('CC(O)Cc1ccc2ccc(=O)oc2c1 (stereo unspecified)', 1),
  ('CN/N=C/c1ccc2ccc(=O)oc2c1', 0),
  ('O=Cc1ccc2ccc(=O)oc2c1', 1),
  ('O=c1ccc2ccc(/C=N/O)cc2o1', 1),
  ('CO/N=C/c1ccc2ccc(=O)oc2c1', 1),
  ('O=c1ccc2ccc(/C=N/N=C/c3ccc4ccc(=O)oc4c3)cc2o1', 0),
  ('CC(=O)CC(c1ccccc1)c1c(O)c2ccccc2oc1=O (stereo unspecified)', 1),
  ('O=c1ccc2ccc(/C=N/c3ccccc3)cc2o1', 0);

====

# assayed.target: Chymotrypsinogen B (Homo sapiens) (UniProt P17538)
# protocol.description: Compound was evaluated for in vitro inhibition of chymotrypsinogen induced proteolysis at 0.1 mM concentration; no action
# Assay type: functional
property: inhibition

INSERT INTO assay_data (molecule, assayed_target, property, value_observed) VALUES
  ('CO/N=C/c1ccc2ccc(=O)oc2c1', 'Chymotrypsinogen B (Homo sapiens) (UniProt P17538)', 'inhibition', 'No action'),
  ('CN/N=C/c1ccc2ccc(=O)oc2c1', 'Chymotrypsinogen B (Homo sapiens) (UniProt P17538)', 'inhibition', 'No action'),
  ('O=c1ccc2ccc(/C=N/Nc3ccccc3)cc2o1', 'Chymotrypsinogen B (Homo sapiens) (UniProt P17538)', 'inhibition', 'No action'),
  ('CC(O)Cc1ccc2ccc(=O)oc2c1 (centres undefined)', 'Chymotrypsinogen B (Homo sapiens) (UniProt P17538)', 'inhibition', 'No action');

====

# assayed.target: Chymotrypsinogen B (Homo sapiens)
# protocol.description: Compound was evaluated for in vitro inhibition of chymotrypsinogen induced proteolysis at 1 mM concentration
# Assay type: functional
property: inhibition (%)

INSERT INTO assay_data (molecule, property, value_observed) VALUES
  ('CO/N=C/c1ccc2ccc(=O)oc2c1', 'inhibition', 56.9),
  ('CC(=O)CC(c1ccccc1)c1c(O)c2ccccc2oc1=O (stereo unspecified)', 'inhibition', 86.7),
  ('O=c1ccc2ccc(/C=N/c3ccccc3)cc2o1', 'inhibition', 73.9),
  ('O=c1ccc2ccc(/C=N/Nc3ccccc3)cc2o1', 'inhibition', 80.1),
  ('CN/N=C/c1ccc2ccc(=O)oc2c1', 'inhibition', 93.9),
  ('Cc1ccc2ccc(=O)oc2c1', 'inhibition', 97.4),
  ('O=c1ccc2ccc(/C=N/O)cc2o1', 'inhibition', 98.7),
  ('O=Cc1ccc2ccc(=O)oc2c1', 'inhibition', 96.6),
  ('O=c1ccc2ccccc2o1', 'inhibition', 89.3),
  ('O=c1ccc2ccc(/C=N/N=C/c3ccc4ccc(=O)oc4c3)cc2o1', 'inhibition', 100),
  ('CC(O)Cc1ccc2ccc(=O)oc2c1 (stereo unspecified)', 'inhibition', 63.1);

====

Reported inhibition by item:
# assayed.target: Chymotrypsinogen B (Homo sapiens) (UniProt P17538)
# protocol.description: Compound was evaluated for in vitro inhibition of chymotrypsinogen induced proteolysis at 0.1 mM concentration
# Assay type: functional
property: inhibition

INSERT INTO measurements (compound, value_observed) VALUES
  ('Cc1ccc2ccc(=O)oc2c1', '48.1%'),
  ('O=c1ccc2ccc(/C=N/c3ccccc3)cc2o1', '90.5%'),
  ('O=c1ccc2ccc(/C=N/N=C/c3ccc4ccc(=O)oc4c3)cc2o1', '24.5%'),
  ('CC(=O)CC(c1ccccc1)c1c(O)c2ccccc2oc1=O (configuration not stated)', '62.4%'),
  ('O=c1ccc2ccc(/C=N/O)cc2o1', '37.4%'),
  ('O=Cc1ccc2ccc(=O)oc2c1', '32.8%');

====

# assayed.target: UniProt:P07477
# protocol.description: Compound was evaluated for in vitro inhibition of trypsin acting as esterase at 1 mM concentration
# Type: functional
property: inhibition (%)

INSERT INTO measurements (compound, property, value_observed) VALUES
  ('CO/N=C/c1ccc2ccc(=O)oc2c1', 'inhibition', 99.9),
  ('O=c1ccc2ccc(/C=N/Nc3ccccc3)cc2o1', 'inhibition', 99.9),
  ('Cc1ccc2ccc(=O)oc2c1', 'inhibition', 88.7),
  ('CC(O)Cc1ccc2ccc(=O)oc2c1 (stereo unspecified)', 'inhibition', 99.4),
  ('O=c1ccc2ccc(/C=N/O)cc2o1', 'inhibition', 98.5),
  ('CN/N=C/c1ccc2ccc(=O)oc2c1', 'inhibition', 97.6),
  ('O=Cc1ccc2ccc(=O)oc2c1', 'inhibition', 99.1),
  ('O=c1ccc2ccccc2o1', 'inhibition', 98),
  ('CC(=O)CC(c1ccccc1)c1c(O)c2ccccc2oc1=O (stereo unspecified)', 'inhibition', 97.5),
  ('O=c1ccc2ccc(/C=N/c3ccccc3)cc2o1', 'inhibition', 97.6),
  ('O=c1ccc2ccc(/C=N/N=C/c3ccc4ccc(=O)oc4c3)cc2o1', 'inhibition', 65.4);

====

# assayed.target: Beta-glucuronidase (Bos taurus)
# Sequence (whole entry): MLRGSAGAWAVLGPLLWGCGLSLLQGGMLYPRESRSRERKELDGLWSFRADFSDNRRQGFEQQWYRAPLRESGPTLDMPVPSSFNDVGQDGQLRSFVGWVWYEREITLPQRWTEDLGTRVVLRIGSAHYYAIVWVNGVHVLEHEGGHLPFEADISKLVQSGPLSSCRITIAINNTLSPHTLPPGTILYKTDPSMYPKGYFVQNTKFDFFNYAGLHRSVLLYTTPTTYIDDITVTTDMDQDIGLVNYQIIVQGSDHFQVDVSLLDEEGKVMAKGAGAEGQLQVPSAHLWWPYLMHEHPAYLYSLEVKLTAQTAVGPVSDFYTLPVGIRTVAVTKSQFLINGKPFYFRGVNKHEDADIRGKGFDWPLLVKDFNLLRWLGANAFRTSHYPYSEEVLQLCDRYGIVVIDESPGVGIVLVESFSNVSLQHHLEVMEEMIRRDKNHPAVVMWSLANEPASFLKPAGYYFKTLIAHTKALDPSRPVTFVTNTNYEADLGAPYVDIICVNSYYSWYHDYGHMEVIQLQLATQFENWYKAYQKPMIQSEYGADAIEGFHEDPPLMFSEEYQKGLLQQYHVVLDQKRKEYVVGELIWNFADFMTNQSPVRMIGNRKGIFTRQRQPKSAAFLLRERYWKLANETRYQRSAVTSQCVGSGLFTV
# protocol.description: Compound was evaluated for in vitro inhibition of beta-glucuronidase at 1 mM concentration
# Format: functional
property: inhibition (%)

INSERT INTO measurements (compound, property, measurement_unit, value_observed) VALUES
  ('O=c1ccc2ccc(/C=N/c3ccccc3)cc2o1', 'inhibition', '%', 95.4),
  ('O=c1ccc2ccc(/C=N/Nc3ccccc3)cc2o1', 'inhibition', '%', 96.8),
  ('O=c1ccc2ccc(/C=N/O)cc2o1', 'inhibition', '%', 100),
  ('CN/N=C/c1ccc2ccc(=O)oc2c1', 'inhibition', '%', 93.3),
  ('O=Cc1ccc2ccc(=O)oc2c1', 'inhibition', '%', 98.9),
  ('CO/N=C/c1ccc2ccc(=O)oc2c1', 'inhibition', '%', 94.1),
  ('Cc1ccc2ccc(=O)oc2c1', 'inhibition', '%', 95.9),
  ('O=c1ccc2ccc(/C=N/N=C/c3ccc4ccc(=O)oc4c3)cc2o1', 'inhibition', '%', 100),
  ('CC(O)Cc1ccc2ccc(=O)oc2c1 (centres undefined)', 'inhibition', '%', 92.3);
